# Assayed Target: UniProtKB Q9NR96
# Sequence (Q9NR96 26-1032): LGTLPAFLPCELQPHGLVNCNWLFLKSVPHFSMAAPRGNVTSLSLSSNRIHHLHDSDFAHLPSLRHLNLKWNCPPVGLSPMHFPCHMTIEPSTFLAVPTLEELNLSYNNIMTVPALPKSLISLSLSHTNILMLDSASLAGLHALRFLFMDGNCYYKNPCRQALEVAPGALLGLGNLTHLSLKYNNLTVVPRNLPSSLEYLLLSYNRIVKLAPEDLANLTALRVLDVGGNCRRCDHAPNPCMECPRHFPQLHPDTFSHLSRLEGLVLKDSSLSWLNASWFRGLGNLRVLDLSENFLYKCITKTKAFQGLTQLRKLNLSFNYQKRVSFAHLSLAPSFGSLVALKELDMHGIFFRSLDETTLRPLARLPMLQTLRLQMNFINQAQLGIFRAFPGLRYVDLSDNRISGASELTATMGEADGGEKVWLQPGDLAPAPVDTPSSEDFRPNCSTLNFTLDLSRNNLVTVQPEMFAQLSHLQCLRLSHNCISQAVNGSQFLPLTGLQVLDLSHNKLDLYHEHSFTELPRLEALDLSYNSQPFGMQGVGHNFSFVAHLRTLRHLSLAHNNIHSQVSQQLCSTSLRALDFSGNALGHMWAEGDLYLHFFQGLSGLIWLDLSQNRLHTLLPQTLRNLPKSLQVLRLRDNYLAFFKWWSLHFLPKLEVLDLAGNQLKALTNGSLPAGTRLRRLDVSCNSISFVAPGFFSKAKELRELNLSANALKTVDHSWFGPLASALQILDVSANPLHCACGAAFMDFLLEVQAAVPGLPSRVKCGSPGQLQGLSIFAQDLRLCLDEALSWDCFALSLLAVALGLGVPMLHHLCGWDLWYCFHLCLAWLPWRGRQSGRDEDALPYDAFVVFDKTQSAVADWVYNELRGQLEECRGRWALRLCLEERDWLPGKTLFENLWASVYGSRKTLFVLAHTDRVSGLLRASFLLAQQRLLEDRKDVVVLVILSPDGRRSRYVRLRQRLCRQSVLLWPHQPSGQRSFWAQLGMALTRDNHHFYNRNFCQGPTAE
# Experiment Description: HEK293-Blue-hTLR-9 cells assay (SEAP reporter, ODN2006 stimulation)
# Type: cell-based
# Design: host or cells: HEK293 (HEK-Blue)
# Condition Set: HEK293-Blue-hTLR9 cells, ODN2006, 20 hrs; read-out: HEK/hTLR9 IC50

- Compound: "C[C@@H]1CN(c2ccc(C#N)c3ncccc23)C[C@H](CN2CCN(c3ccc4c(c3)CNC4)[C@@H](CO)C2)O1"
  Relation Qualifier: "="
  IC50 / nM: 148
- Compound: "C[C@@H]1CN(c2ccc(C#N)c3ncccc23)C[C@H](CN2CCN(c3nc4c(s3)CNCC4)CC2)O1"
  Relation Qualifier: "="
  IC50 / nM: 140
- Compound: "C[C@@H]1CN(c2ccc(C#N)c3ncccc23)C[C@H](CN2CCN(c3nccc4c3CCNC4)CC2)O1"
  Relation Qualifier: "="
  IC50 / nM: 151
- Compound: "C[C@@H]1CN(c2ccc(C#N)c3ncccc23)C[C@H](CN2CCN(c3cnc4c(c3)CNC4)CC2)O1"
  Relation Qualifier: "="
  IC50 / nM: 53
- Compound: "C[C@@H]1CN(c2ccc(C#N)c3ncccc23)C[C@H](CN2C[C@@H]3[C@@H](C2)OCCN3c2cnc3c(c2)CCNC3)O1"
  Relation Qualifier: "="
  IC50 / nM: 44
- Compound: "C[C@@H]1Cc2cnc(N3CCN(C[C@H]4CN(c5ccc(C#N)c6nccnc56)C[C@@H](C)O4)CC3)cc2CN1 (single isomer, unassigned)"
  Relation Qualifier: "="
  IC50 / nM: 192
- Compound: "C[C@@H]1CN(c2ccc(C#N)c3ncccc23)C[C@H](CNC2CN(c3cnc4c(c3)CNC4)C2)O1"
  Relation Qualifier: "="
  IC50 / nM: 111
- Compound: "C[C@@H]1CN(c2ccc(C#N)c3ncccc23)C[C@H](CN2CC3(C2)CN(c2cnc4c(c2)CCNC4)CCO3)O1"
  Relation Qualifier: "="
  IC50 / nM: 114
- Compound: "C[C@@H]1CN(c2ccc(C#N)c3ncccc23)C[C@H](CN2CCN(c3cc4c(cn3)[C@@H](C)NCC4)CC2)O1 (single isomer, unassigned)"
  Relation Qualifier: "="
  IC50 / nM: 82
- Compound: "C[C@@H]1CN(c2ccc(C#N)c3ncccc23)C[C@H](CN2CCN(c3cnc4c(n3)CCNC4)CC2)O1"
  Relation Qualifier: "="
  IC50 / nM: 98
- Compound: "C[C@@H]1CN(c2ccc(C#N)c3ncccc23)C[C@H](CN2C[C@H]3CN(c4ccc5c(n4)CCNC5)CC[C@H]32)O1 (single isomer, unassigned)"
  Relation Qualifier: "<"
  IC50 / nM: 32
- Compound: "C[C@@H]1Cc2cc(N3CCN(C[C@H]4CN(c5ccc(C#N)c6nccnc56)C[C@@H](C)O4)CC3)ncc2CN1 (single isomer, unassigned)"
  Relation Qualifier: "="
  IC50 / nM: 124
- Compound: "COC1CNCc2ccc(N3CCN(C[C@H]4CN(c5ccc(C#N)c6ncccc56)C[C@@H](C)O4)CC3)cc21 (stereo partly drawn)"
  Relation Qualifier: "="
  IC50 / nM: 92
- Compound: "C[C@@H]1CN(c2ccc(C#N)c3ncccc23)C[C@H](CN2CCN(c3cnc4c(c3)CN[C@@H]4C)CC2)O1 (single isomer, unassigned)"
  Relation Qualifier: "="
  IC50 / nM: 84
- Compound: "C[C@@H]1CN(c2ccc(C#N)c3ncccc23)C[C@H](CN2CCN(c3ccc4c(n3)CCN(C)C4)CC2)O1"
  Relation Qualifier: "="
  IC50 / nM: 86
